Ref: ChEMBL document CHEMBL1221378

Give IC50 for every item shown.
Tested on: Bel-7402
Test: Cytotoxicity against human Bel7402 cells after 72 hrs by MTT assay
Assay type: functional, cell-based
Conditions: Bel-7402, 72 h
Answer format: numeric, nM implied, no suffix.

Ask | Give the observed IC50 of CC(=O)O[C@H]1C(=O)[C@@]2(C)[C@H]([C@H](OC(=O)c3ccccc3)[C@]3(O)C[C@H](OC(=O)[C@H](O)[C@@H](NC(=O)c4ccccc4)c4ccccc4)C(C)=C1C3(C)C)[C@]1(OC(C)=O)CO[C@@H]1C[C@@H]2O for Bel-7402.
Reply | 60

Ask | Give the observed IC50 of COc1ccc(C(=O)O[C@H]2[C@H](O[C@@H]3[C@@H](OC(C)=O)[C@H](O[C@H]4C[C@H]5[C@@H]6CC=C7C[C@@H](O)CC[C@]7(C)[C@H]6CC[C@]5(C)[C@H]4[C@H](C)C(=O)CC[C@@H](C)CO)OC[C@H]3O)OC[C@@H](O)[C@@H]2O)cc1 for Bel-7402.
Reply | 39
